# target: biotinylated human DLL3 protein expressed as a human IgG1 fusion protein (human) (UniProt Q9NYJ7)
# Sequence (Q9NYJ7 27-492): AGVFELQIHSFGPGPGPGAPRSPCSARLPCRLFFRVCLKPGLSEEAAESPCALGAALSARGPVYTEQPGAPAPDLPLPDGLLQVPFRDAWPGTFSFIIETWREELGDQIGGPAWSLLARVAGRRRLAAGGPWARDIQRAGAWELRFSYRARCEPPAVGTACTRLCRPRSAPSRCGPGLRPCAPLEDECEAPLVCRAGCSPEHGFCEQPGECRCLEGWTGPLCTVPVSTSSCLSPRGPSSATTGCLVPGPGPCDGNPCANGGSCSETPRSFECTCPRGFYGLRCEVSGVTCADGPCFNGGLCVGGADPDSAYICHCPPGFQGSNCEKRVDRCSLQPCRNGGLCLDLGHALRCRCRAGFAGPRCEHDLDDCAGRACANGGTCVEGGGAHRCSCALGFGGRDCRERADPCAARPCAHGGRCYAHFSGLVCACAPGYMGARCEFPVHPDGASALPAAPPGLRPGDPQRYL
# experiment_summary: Octet, biotinylated human DLL3-IgG1 fusion on streptavidin tips, single 50 nM, conditioned medium (relative KD)
The reader will find reported Kd values listed item by item below.
Report the figure in nM without appending any unit label.

Q) Give me measured Kd, please, for this binder: anti-DLL3 trispecific protein, DLL3 binder 4H06 (protein, part only; not given: anti-CD3 and anti-albumin domains, part only) chain, part: EVQLVESGGGLVQPGGSLTLSCAASGRSVSFLSMAWYRQAPGKKRELVAGISADGSTIYIDSVKGRFTISRDNAKNSVYLQMNSLRAEDTAVYYCYAYRWTTRYTYWGQGTLVTVSSGGGGSGGGSGGGGSGGGSHHHHHH
A) 18

Q) Give me measured Kd, please, for this binder: anti-DLL3 trispecific protein, DLL3 binder 3H07 (protein, part only; not given: anti-CD3 and anti-albumin domains, part only) chain, part: EVQLVESGGGLVQPGGSLTLSCAASGSRVSFLSMAWYRQAPGKKRELVAGISADGSTSYIDSVKGRFTISRDNAKNSVYLQMNSLRAEDTAVYYCYAYRWRTRYTYWGQGTLVTVSSGGGGSGGGSGGGGSGGGSHHHHHH
A) 13

Q) Give me measured Kd, please, for this binder: anti-DLL3 trispecific protein, DLL3 binder 3D03 (protein, part only; not given: anti-CD3 fragment and anti-albumin sdAb, part only) chain, part: EVQLVESGGGLVQPGGSLTLSCAASGSSVVFLSMAWYRQAPGKKRELVAGISADGSMDYIDSVKGRFTISRDNAKNSVYLQMNSLRAEDTAVYYCYAYRWRTRYTYWGQGTLVTVSSGGGGSGGGSGGGGSGGGSHHHHHH
A) 11

Q) Give me measured Kd, please, for this binder: anti-DLL3 trispecific protein, DLL3 binder 4D02 (protein, part only; not given: CD3 fragment and albumin sdAb, part only) chain, part: EVQLVESGGGLVQPGGSLTLSCAASGSKVSFLSMAWYRQAPGKKRELVAGISARGSTDYIDSVKGRFTISRDNAKNSVYLQMNSLRAEDTAVYYCYAYQWTTRYTYWGQGTLVTVSSGGGGSGGGSGGGGSGGGSHHHHHH
A) 30

Q) Give me measured Kd, please, for this binder: anti-DLL3 trispecific protein, DLL3 binder 4D03 (protein, part only; not given: anti-CD3 fragment and anti-albumin domain, part only) chain, part: EVQLVESGGGLVQPGGSLTLSCAASGSSVRFLSMAWYRQAPGKKRELVAGISATGSTDYIDSVKGRFTISRDNAKNSVYLQMNSLRAEDTAVYYCYAYRWTRRYTYWGQGTLVTVSSGGGGSGGGSGGGGSGGGSHHHHHH
A) 26

Q) Give me measured Kd, please, for this binder: anti-DLL3 trispecific protein, DLL3 binder 3B06 (protein, part only; not given: anti-CD3 fragment and anti-albumin sdAb, part only) chain, part: EVQLVESGGGLVQPGGSLTLSCAASGKSVSFLSMAWYRQAPGKKRELVAGISKDGSTDYIDSVKGRFTISRDNAKNSVYLQMNSLRAEDTAVYYCYAYRWTTRYTYWGQGTLVTVSSGGGGSGGGSGGGGSGGGSHHHHHH
A) 15

Q) Give me measured Kd, please, for this binder: anti-DLL3 trispecific protein, DLL3 binder 1G09 (protein, part only; not given: anti-CD3 fragment and anti-albumin domain, part only) chain, part: EVQLVESGGGLVQPGGSLTLSCVASGSTSSINAMGWYRRAPGKQRELVAGISSDGSKVYADSVKGRFTISRDNAKNSVYLQMNSLRAEDTAVYYCYYFRTVSKSSMRYWGQGTLVTVSSGGGGSGGGSGGGGSGGGSHHHHHH
A) 10

Q) Give me measured Kd, please, for this binder: anti-DLL3 trispecific protein, DLL3 binder 4H01 (protein, part only; not given: CD3 binder and albumin binder, part only) chain, part: EVQLVESGGGLVQPGGSLTLSCAASGSSVSFLSMAWYRQAPGKKRELVAGISANGSTDYYDSVKGRFTISRDNAKNSVYLQMNSLRAEDTAVYYCYAYRWRTRYTYWGQGTLVTVSSGGGGSGGGSGGGGSGGGSHHHHHH
A) 21
